protocol notes: Probe fluorescence ratio response to arachidonic acid relative to ADIFAB2
Type: binding
applied conditions: arachidonic acid; response relative to ADIFAB2
readout type: DR/DR AA
Answers are plain numbers.

Observe how each entry below is paired with its result.
>  <molecule>
73F 72A (protein, listed as Rattus norvegicus, PEPTIDE (1)...(131) wild-type rat intestinal fatty acid binding protein) AFDGTWKVDRNENYEKFMEKMGINVVKRKLGAHDNLKLTITQEGNKFTVKESSNFRNIDVVFELGVDFAYSAFDGTELTGTWTMEGNKLVGKFKRVDNGKELIAVREISGNELIQTYTYEGVEAKRIFKKE

>  <DR/DR AA>
1.051

$$$$
>  <molecule>
23W1, 72A (protein, listed as Rattus norvegicus, PEPTIDE (1)...(131) wild-type rat intestinal fatty acid binding protein) AFDGTWKVDRNENYEKFMEKMGWNVVKRKLGAHDNLKLTITQEGNKFTVKESSNFRNIDVVFELGVDFAYSAADGTELTGTWTMEGNKLVGKFKRVDNGKELIAVREISGNELIQTYTYEGVEAKRIFKKE

>  <DR/DR AA>
0.62

$$$$

Read the next record carefully.
## Task I would be grateful if you could share the reported DR/DR AA for 72A 73P 74V (protein, listed as Rattus norvegicus, PEPTIDE (1)...(131) wild-type rat intestinal fatty acid binding protein) AFDGTWKVDRNENYEKFMEKMGINVVKRKLGAHDNLKLTITQEGNKFTVKESSNFRNIDVVFELGVDFAYSAPVGTELTGTWTMEGNKLVGKFKRVDNGKELIAVREISGNELIQTYTYEGVEAKRIFKKE .
## Result 2.354
